target-desc: T1, antibody raised against ETAG
T1 construct: read-out of display; also called E-tag antibody; E tag antibody
protocol-summary: phage ELISA, 405 nm; anti-E-tag antibody coated
result-type: ETAG (OD)

>  <binder>
TSCQVMFLAGQHLLSRVPRLAAAGAPVPYPDPLEPRP (not shown: phage gene III coat protein (pCANTAB5E)) [DGL-2-20R-3-B6]

>  <numeric-result>
11.7

$$$$
>  <binder>
DGI-2-40F-3-B95 (not shown: phage gene III coat protein (pCANTAB5E)) peptide: DYKTCVSQHVHPLFGEYFYHKVTHMSILSPTFRVTSLYGKAAAGAPVPYPDPLEPRP

>  <numeric-result>
5.4

$$$$
>  <binder>
LVIQCSASVVACDLYWNYVGCLAAGAAAGAPVPYPDPLEPRP (not shown: phage gene III coat protein (pCANTAB5E)) [DGI-2-20C-3-D12]

>  <numeric-result>
3.6

$$$$
>  <binder>
MAVLPAARDFGGVVQGGVSGAAAGAPVPYPDPLEPRP (not shown: phage gene III coat protein (pCANTAB5E)) [DGI-2-20F-3-C2]

>  <numeric-result>
11.5

$$$$
>  <binder>
RNWLDKDCVWMGDCGARAGEAAAGAPVPYPDPLEPRP (not shown: phage gene III coat protein (pCANTAB5E)) [DGI-2-20F-4-E3]

>  <numeric-result>
16.9

$$$$
>  <binder>
LQIVRPAGWKMPGQVGYYIGAAAGAPVPYPDPLEPRP (not shown: phage gene III coat protein (pCANTAB5E)) [DGI-2-20R-3-A9]

>  <numeric-result>
14.3

$$$$
